Data credit: PubChem BioAssay (NCI)

System: SK-MEL-28 melanoma
Assay: NCI-60 one-dose screen, 48 h
Conditions: 10 µM unless noted
This is part of a sample that, as a whole, favours compounds with a hit. Of some 83,000 tested, about 20% had one in any assay. Active and inactive are the calls of the source. The calls were made as follows: active = growth percent below 10; inactive = the rest.
Give your call using only these classes: label 1 for active, label 0 for inactive

Past entries and their recorded results:
COc1ccc2c(c1)C(C)Cc1c(Cl)ncnc1N2C (stereo not drawn): label 0
COc1ncc(-c2ccc3nccc(C#CCCCCC(=O)NO)c3c2)cc1NS(=O)(=O)c1ccc(F)cc1F: label 1
CC/C=C(\C)C(CCC)(CN=O)C(=O)OCC (stereo not drawn): label 0
COc1ccc(-c2ccc(NNC(=O)c3ccc(F)cc3)nn2)cc1OC: label 0
C=C(C)[C@@H]1CC[C@]2(C(=O)OC)CC[C@]3(C)[C@H](CC[C@@H]4[C@@](C)(CCc5nn[nH]n5)[C@H](C(=C)C)CC[C@]43C)[C@@H]12: label 1
CCCCCCCCCN(CCCCCCCCC)C(C)C(=O)c1ccc2cc(Br)c3ccccc3c2c1 (stereo not drawn): label 0

Tell me the recorded outcome of this test for `COc1cc(/C=C/C(=O)/C=C/c2ccc(-n3ccnc3)cc2)ccc1O` . label 0

Tell me the recorded outcome of this test for `O=C(N=c1n(-c2ccccc2)nc2n1CCN2C1=NCCN1)c1ccc(Cl)cc1` . label 0

Tell me the recorded outcome of this test for CCN(CC)CC(C)Nc1ccc(C)c2sc3ccccc3c(=O)c12 (stereo not drawn) . label 0

Tell me the recorded outcome of this test for `CC1(C)CC[C@]2(C(N)=O)CC[C@]3(C)C(=CC[C@@H]4[C@@]5(C)C/C(=C/c6ccncc6)C(=O)C(C)(C)[C@@H]5CC[C@]43C)[C@@H]2C1` . label 1

Tell me the recorded outcome of this test for `COc1ccc(/C=C(/C2=NCCN2)n2ccc3ccccc32)cc1` . label 0

Tell me the recorded outcome of this test for COc1ccc(C2CC(c3ccc4ccccc4c3)=NN2c2nc(O)c(C3=c4cc(OC)ccc4=NC3=O)s2)cc1 (stereo not drawn) . label 1

Tell me the recorded outcome of this test for COc1cc2c(c(OC)c1)C1c3cc(OC)ccc3NC(=O)N1CC2 (stereo not drawn) . label 0

Tell me the recorded outcome of this test for `Cc1cccc(C[C@H](NC(=O)Nc2ccc(C)cc2F)C(=O)N[C@@H]2C(=O)N3C[C@H](O)C[C@H]3C(=O)N3CCN(C)C[C@H]3C(=O)N[C@@H](C)C(=O)N3C[C@H](C)C[C@H]3C(=O)O[C@H]2C)c1` . label 0

Tell me the recorded outcome of this test for CC1(C(=O)O)CCC(N)(C(=O)O)C1(C)C (stereo not drawn) . label 0

Tell me the recorded outcome of this test for `Oc1ccc(N=Nc2nccs2)c(O)c1` . label 0

Tell me the recorded outcome of this test for `COc1cc2c(cc1OCCCN1CCN(CCCOc3cc4c(cc3OC)C(=O)N3C[C@H](F)C[C@H]3C=N4)CC1)N=C[C@@H]1C[C@@H](F)CN1C2=O` . label 1

Tell me the recorded outcome of this test for `Cc1ccc(S(=O)(=O)NCCCNc2nccc(-c3c(-c4cccc(F)c4)nc4occn34)n2)cc1` . label 0

* * *

System: LOX IMVI melanoma
Experiment: NCI-60 one-dose screen, 48 h
Conditions: 10 µM unless noted
About 83,000 compounds went through this panel and 20% of them were active in at least one assay; those are over-represented in the sample as a whole. Active and inactive are the calls of the source. The calls were made as follows: active = growth percent below 10; inactive = the rest.
Give your call using only these classes: 1 = active, 0 = inactive

O=C(Nc1cc(F)cc2cccnc12)c1cnc(N2CCNCC2)cn1: 0
CC(C)=CC/C=C(/C)[C@H]1CC[C@]2(C)[C@@H]1CC[C@@H]1[C@@]3(C)CCC(=O)NC(C)(C)[C@@H]3CC[C@]12C: 1
O=C(Nc1cccc2ccccc12)c1cc2ccccc2cc1O: 0
CCOC(=O)c1nn(C2CCCCO2)c2ccc(NC(=O)CN3CCCC3)cc12 (stereo not drawn): 0

Tell me the recorded outcome of this test for `Cc1cccc(C[C@H](NC(=O)Nc2ccc(C)cc2F)C(=O)N[C@@H]2C(=O)N3C[C@H](O)C[C@H]3C(=O)N3CCN(C)C[C@H]3C(=O)N[C@@H](C)C(=O)N3C[C@H](C)C[C@H]3C(=O)O[C@H]2C)c1` . 0

Tell me the recorded outcome of this test for `COc1ccc(-c2cc(-c3ccc(Cl)cc3)nc(NCCCCNc3ccnc4cc(Cl)ccc34)n2)cc1` . 1

Tell me the recorded outcome of this test for `COC(=O)[C@]1(C)CC[C@]2(C)CC[C@]3(C)C(=CC(=O)[C@@H]4[C@@]5(C)CCC(=O)NC(C)(C)[C@@H]5CC[C@]43C)[C@@H]2C1` . 1

Tell me the recorded outcome of this test for `COc1ccc(C=C2c3ccccc3-c3ccccc32)cc1` . 0
